All figures here come from ChEMBL document CHEMBL5346921.

- Test Method Notes: Cytotoxicity against human NCM460 cells assessed as reduction in cell viability incubated for 48 hrs by MTT assay
- Assay type: toxicity, cell-based
Criterion: IC50 at 48 h strictly under 100 µM. Met: true. Not met: false.

Is IC50 at 48 h strictly under 100 µM for the entry NC(=O)c1ccccc1OCc1cccc(NC(=O)c2cccc(Cl)c2)c1 ?
false

Record NC(=O)c1ccccc1OCc1cccc(NC(=O)Cc2cccc(Br)c2)c1 : is its IC50 at 48 h strictly below 100 µM?
true

Report whether reported IC50 at 48 h is lower than 100 µM (strictly) for NC(=O)c1ccccc1NCc1cccc(NC(=O)Cc2cccc(Br)c2)c1
false

Field: below-cutoff. Rule: recorded IC50 at 48 h strictly less than 100 µM. Subject: NC(=O)c1ccccc1NCc1cccc(NC(=O)c2ccc(Br)cc2)c1
true

Check if IC50 at 48 h falls below 100 µM for NC(=O)c1ccccc1OCc1cccc(NC(=O)Cc2cccc(Cl)c2)c1 .
true

Please let me know if NC(=O)c1ccccc1OCc1cccc(NC(=O)c2ccc(Br)cc2)c1 shows IC50 at 48 h below 100 µM.
false

IC50 at 48 h under 100 µM? Item: NC(=O)c1ccccc1OCc1cccc(NC(=O)c2cccc(Br)c2)c1
false

# check: IC50 at 48 h < 100 µM for NC(=O)c1ccccc1NCc1cccc(NC(=O)c2ccc(Cl)cc2)c1
false

Quick check: does NC(=O)c1ccccc1OCc1cccc(NC(=O)c2ccc(Cl)cc2)c1 have IC50 at 48 h under 100 µM?
false

Dear reviewer, please state whether NC(=O)c1ccccc1NCc1cccc(NC(=O)c2ccccc2Br)c1 has IC50 at 48 h strictly beneath 100 µM.
true

Take the compound NC(=O)c1ccccc1OCc1cccc(NC(=O)Cc2ccccc2Br)c1 and say whether its IC50 at 48 h is less than 100 µM.
false
